B1: KLHL12 (parent)
chain: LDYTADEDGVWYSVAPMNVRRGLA

Variants of: B1
Assay: protein stability index of a GFP-peptide fusion (GPS, HEK-293T) (PSI 1-6); higher = more stable;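 also: lentivirally expressed fusions sorted by FACS into six bins by GFP to DsRed ratio, PSI derived from sequencing read proportions per bin multiplied by bin number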
Details: c terminus: a fixed tail appended
Measured Metric: protein stability index

In [3]: df
Out[3]:
   mutation_id  experimental_result
0         Y12C                 3.07
1         P16D                 3.07
2          Y3T                 3.01

The measurements presented in this section are drawn from the supplement of paper PMC10567573.
